Item-by-item account of GI50
System: RXF 393
procedure-summary: NCI tumour cell line growth inhibition, 48 h
The source made the active and inactive calls. No stated cut-off is given here; in the data, active = GI50 up to about 1.1 µM and inactive = higher.

Data request: Dear colleague, I am looking for the recorded GI50 of the following molecule: COc1cc([C@@H]2c3cc4c(cc3[C@@H](NC(=O)c3ccccc3)C3COC(=O)[C@@H]32)OCO4)cc(OC)c1O (stereo partly drawn)
Data returned: 7.31 µM (inactive)

Now for a further molecule.
Data request: Dear colleague, I am looking for the recorded GI50 of the following molecule: COC(=O)CC[C@@H](NC(=O)C(C)NC(=O)COC1C(O)C(COC(=O)CCCCCCCCCCNC(=O)c2ccc([N+](=O)[O-])c3[nH]c4cc(Br)ccc4c(=O)c23)OC(OCc2ccccc2)C1NC(C)=O)C(N)=O (stereo partly drawn)
Data returned: 56.6 µM (inactive)

* * *

Below are compounds with their GI50 as measured on HCT-15.

Completed entries (count: 3):
Data request: Give recorded GI50 with HCT-15 for the following compound: c1ccc2c3c([nH]c2c1)[C@H]1C2CCCCN2CN1CC3 (stereo partly drawn)
Data returned: > 100 µM

Data request: Give recorded GI50 with HCT-15 for the following compound: COc1ccc(-c2oc3cc(O)c(OC)c(O)c3c(=O)c2O)cc1 [BETULETOL]
Data returned: 4.84 µM

Data request: Give recorded GI50 with HCT-15 for the following compound: C=C1C(=O)C23CC1CCC2C12CO[C@@]3(O)[C@@H](O)C1C(C)(C)C=CC2=O (stereo partly drawn)
Data returned: 0.838 µM

Others:
Data request: Give recorded GI50 with HCT-15 for the following compound: O.O=C([O-])c1ccccc1Nc1ccccc1C(=O)[O-].[Zn+2]
Data returned: > 60 µM

Data request: Give recorded GI50 with HCT-15 for the following compound: CC1CN=C(N(Cc2ccccc2)C(=O)Nc2ccc(Cl)c(Cl)c2)S1 (stereo not drawn)
Data returned: 15.7 µM

Data request: Give recorded GI50 with HCT-15 for the following compound: O=C(Nc1ccccc1C(=O)Nc1nccs1)c1ccccc1
Data returned: 4.37 µM

* * *

Tested on: MDA-MB-435
procedure-summary: NCI tumour cell line growth inhibition, 48 h
Activity calls are given as the source filed them. Cut-off read from the data, not from the text of the source: active = GI50 up to about 1.1 µM and inactive = higher.
Answer with one of the outcomes active, inactive

Data request: Assay result, entry O=c1[nH]c2c(S)nc(O)nc2n1-c1ccccc1 — outcome?
Data returned: inactive

Could you now look at the following compound, please?
Data request: Assay result, entry CCCC(=O)Nc1ncnc2c1ncn2C1OC2COP(=O)(O)OC2C1OC(=O)CCC (stereo not drawn) — outcome?
Data returned: inactive

* * *

Tested on: NCI-H460
procedure-summary: NCI tumour cell line growth inhibition, 48 h
Active and inactive are the calls of the source. Rule as the data show it: active = GI50 up to about 1.1 µM and inactive = higher.
measure-name: GI50

Completed entries (count: 5):
Data request: Dear colleague, I am looking for the recorded GI50 of the following molecule: CC1=C2CC3=C(C)C(=O)O[C@H]3C[C@@H](C)[C@@H]2CC1 [AMERICANOLIDE D]
Data returned: > 100 µM (inactive)

Data request: Dear colleague, I am looking for the recorded GI50 of the following molecule: Cc1cc(/N=C/c2ccc(F)cc2)n(-c2ccccc2)n1
Data returned: 41.5 µM (inactive)

Data request: Dear colleague, I am looking for the recorded GI50 of the following molecule: O=C(Cc1ccccc1)NCCCN(CCCCN(CCCNC(=O)Cc1ccccc1)C(=O)OCc1ccccc1)C(=O)OCc1ccccc1
Data returned: > 19.9 µM (inactive)

Data request: Dear colleague, I am looking for the recorded GI50 of the following molecule: O=C(O)CCSCc1ccccc1
Data returned: > 100 µM (inactive)

Data request: Dear colleague, I am looking for the recorded GI50 of the following molecule: CSc1ccc2c(cc1=O)[C@@H](NC(=O)c1cc(O)c(O)c(O)c1)CCc1cc(O)c(O)c(O)c1-2
Data returned: 20 µM (inactive)

Others:
Data request: Dear colleague, I am looking for the recorded GI50 of the following molecule: C/C(=N\[N+](C)(C)C)C(c1ccccc1)C1(c2ccccc2)C(c2ccccc2)=C1c1ccccc1 (stereo not given)
Data returned: > 100 µM (inactive)

* * *

Tested on: MDA-MB-435
procedure-summary: NCI tumour cell line growth inhibition, 48 h
The source made the active and inactive calls. Rule as the data show it: active = GI50 up to about 1.1 µM and inactive = higher.
Answer with one of the outcomes active, inactive

Worked examples, 4 molecules total:
Data request: Assay result, entry CCOC(=O)C(C(=O)OCC)C(=O)c1ccccc1C(=O)c1ccccc1 — outcome?
Data returned: inactive

Data request: Assay result, entry CC(=N/NC(=S)N(C)C)/C(=N\NC(=S)N(C)C)c1ccccc1 — outcome?
Data returned: inactive

Data request: Assay result, entry N#CC(c1cc2c(cc1Br)OCO2)N1CCOCC1 (stereo not given) — outcome?
Data returned: inactive

Data request: Assay result, entry CC1=C2c3ccccc3N(S(=O)(=O)c3ccccc3)[C@H]2[C@H](C(=O)N2C3CC4CC[C@@]3(CS2(=O)=O)C4(C)C)CC1 (stereo not given in full) — outcome?
Data returned: inactive

Others:
Data request: Assay result, entry O=c1c(Cc2c(O)oc3cc(O)ccc3c2=O)c(O)oc2cc(O)ccc12 — outcome?
Data returned: inactive

Data request: Assay result, entry O=C1[C@@H]2Cc3c([nH]c4ccccc34)C(C3CCCCC3)N2C(=O)[C@@H]2CCCN12 (stereo not given in full) — outcome?
Data returned: inactive

Data request: Assay result, entry Cc1ccc2cccc(-c3cccc4ccccc34)c2n1 — outcome?
Data returned: inactive

Data request: Assay result, entry OC1CC2CCC(C1)N2CCCN1c2ccccc2Sc2ccc(Cl)cc21 (stereo not given) — outcome?
Data returned: inactive

Data request: Assay result, entry CCC(C)N1CN(c2ccccc2)C2(CCN(CCCSc3ccc(F)cc3)CC2)C1=O (stereo not given) — outcome?
Data returned: inactive

Data request: Assay result, entry O=c1[nH]/c(=C/c2ccc(OCc3ccccc3)cn2)c(=O)[nH]/c1=C/c1ccc(Cl)cc1 — outcome?
Data returned: active

Data request: Assay result, entry CN(C)c1ccc(/C=C(\NC(=O)c2ccccc2)C(=O)NCC(=O)O)cc1 — outcome?
Data returned: inactive

* * *

Tested on: SNB-19
procedure-summary: NCI tumour cell line growth inhibition, 48 h
The source made the active and inactive calls. No stated cut-off is given here; in the data, active = GI50 up to about 1.1 µM and inactive = higher.
measure-name: GI50

Completed entries (count: 8):
Data request: Dear colleague, I am looking for the recorded GI50 of the following compound: O=C(CCCN1CCC2(CC1)CC(=O)N(N1CCCCCC1)C2=O)c1ccccc1
Data returned: > 100 µM (inactive)

Data request: Dear colleague, I am looking for the recorded GI50 of the following compound: CCCCOc1ccc(OCCCCCCCCCC[N+](C)(C)C)cc1
Data returned: 7.6 µM (inactive)

Data request: Dear colleague, I am looking for the recorded GI50 of the following compound: Cc1ccc2nc(-c3ccc(-n4c(C)nc(=O)c(-c5ccc(F)cc5)c4C)cc3)sc2c1
Data returned: 14.8 µM (inactive)

Data request: Dear colleague, I am looking for the recorded GI50 of the following compound: Cc1cc(-c2nc3ccccc3s2)ccc1NS(=O)(=O)O
Data returned: > 24.4 µM (inactive)

Data request: Dear colleague, I am looking for the recorded GI50 of the following compound: CCOC(=O)/C=C(\C)c1ccc(OC)cc1
Data returned: > 100 µM (inactive)

Data request: Dear colleague, I am looking for the recorded GI50 of the following compound: CC(=O)O[C@H]1C(=O)[C@@]2(C)[C@H]([C@H](OC(=O)c3ccccc3)[C@]3(O)C[C@H](OC(=O)[C@H](O)[C@@H](NC(=O)c4ccccc4)C4CCCCC4)C(C)=C1C3(C)C)[C@]1(OC(C)=O)CO[C@@H]1C[C@@H]2O
Data returned: 0.013 µM (active)

Data request: Dear colleague, I am looking for the recorded GI50 of the following compound: C#CCNC(Cc1ccccc1)C(=O)O (stereo not given)
Data returned: > 100 µM (inactive)

Data request: Dear colleague, I am looking for the recorded GI50 of the following compound: c1ccc(CSc2nc(N3CCCCC3)c3cn[nH]c3n2)cc1
Data returned: 25.2 µM (inactive)

Others:
Data request: Dear colleague, I am looking for the recorded GI50 of the following compound: Cn1c(=O)n2n(c1=O)C(S(=O)(=O)c1ccccc1)C2 (stereo not given)
Data returned: > 100 µM (inactive)

Data request: Dear colleague, I am looking for the recorded GI50 of the following compound: N#CCCC1(CCC#N)CCCCCCCCC(CCC#N)(CCC#N)C(=O)C1=O
Data returned: > 100 µM (inactive)

* * *

System: KM12
procedure-summary: NCI tumour cell line growth inhibition, 48 h
Activity calls are given as the source filed them. Rule as the data show it: active = GI50 up to about 1.1 µM and inactive = higher.
measure-name: GI50

Data request: Dear colleague, I am looking for the recorded GI50 of the following compound: O=C(O)C1C(C(=O)O)C2C(=O)C=CC1N2Cc1ccccc1 (stereo not given)
Data returned: 3.61 µM (inactive)

Data request: Dear colleague, I am looking for the recorded GI50 of the following compound: CSc1ccc2c(cc1=O)[C@@H](NC(=O)c1cc(O)c(O)c(O)c1)CCc1cc(O)c(O)c(O)c1-2
Data returned: 20.9 µM (inactive)

Data request: Dear colleague, I am looking for the recorded GI50 of the following compound: Cc1c2c(cc3c1[nH]c1ccccc13)C=NCC2
Data returned: 8.65 µM (inactive)

Others:
Data request: Dear colleague, I am looking for the recorded GI50 of the following compound: CC1=C2c3ccccc3N(S(=O)(=O)c3ccccc3)[C@H]2[C@H](C(=O)N2C3CC4CC[C@@]3(CS2(=O)=O)C4(C)C)CC1 (stereo not given in full)
Data returned: 49.5 µM (inactive)

Data request: Dear colleague, I am looking for the recorded GI50 of the following compound: Cc1[nH]c(=O)[nH]c(=O)c1N(CCF)CCCl [FLUORODOPAN]
Data returned: 429 µM (inactive)

Data request: Dear colleague, I am looking for the recorded GI50 of the following compound: NC(=O)C/C=C/CC(N)=O
Data returned: > 100 µM (inactive)

Data request: Dear colleague, I am looking for the recorded GI50 of the following compound: CC(=N/NC(=S)N(C)C)/C(=N\NC(=S)N(C)C)c1ccccc1
Data returned: 2.15 µM (inactive)

Data request: Dear colleague, I am looking for the recorded GI50 of the following compound: O=c1[nH]c2c(S)nc(O)nc2n1-c1ccccc1
Data returned: > 100 µM (inactive)

Data request: Dear colleague, I am looking for the recorded GI50 of the following compound: COCCOCC(=O)N(CCn1ccc(NC(c2ccccc2)(c2ccccc2)c2ccccc2)nc1=O)CCn1cnc2nc(N)[nH]c(=O)c21
Data returned: > 100 µM (inactive)

Data request: Dear colleague, I am looking for the recorded GI50 of the following compound: COC(=O)Nc1nc2ccccc2[nH]1 [CARBENDAZIM]
Data returned: 4.26 µM (inactive)
